Listed binders paired with reported Emax (IL-2 pg/ml), NCI-H226 co-culture, Donor A
assayedSystem: human CD137 on primary human CD8+ T cells (human, UniProt Q07011 24-255)
Sequence (Q07011 24-255): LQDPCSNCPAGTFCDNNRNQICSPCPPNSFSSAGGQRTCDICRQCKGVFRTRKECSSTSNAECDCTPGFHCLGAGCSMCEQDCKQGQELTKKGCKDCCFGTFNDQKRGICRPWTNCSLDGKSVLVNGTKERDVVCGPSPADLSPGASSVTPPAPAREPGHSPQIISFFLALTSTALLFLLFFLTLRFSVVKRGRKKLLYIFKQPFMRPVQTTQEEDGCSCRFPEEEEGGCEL
assayText: cell-based or functional assay
reportedProperty: Emax (IL-2 pg/ml), NCI-H226 co-culture, Donor A

binder: FS22-172-003-AA/FS28-256-023 (bispecific antibody, human IgG1, kappa, L234A L235A, V domains shown, IgG1 mAb^2 with LALA) VH: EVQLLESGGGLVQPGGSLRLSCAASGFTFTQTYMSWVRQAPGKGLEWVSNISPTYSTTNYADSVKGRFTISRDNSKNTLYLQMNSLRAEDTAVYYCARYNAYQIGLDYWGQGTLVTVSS VL: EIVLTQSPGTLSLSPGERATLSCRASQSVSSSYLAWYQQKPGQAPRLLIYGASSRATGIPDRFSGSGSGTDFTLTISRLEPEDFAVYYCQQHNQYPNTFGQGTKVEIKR
endpointResult: 1960 pg/mL

binder: FS22-172-003-AA/FS28-024-060 (bispecific antibody, human IgG1, kappa, L234A L235A, V domains shown, IgG1 mAb^2 with LALA) VH: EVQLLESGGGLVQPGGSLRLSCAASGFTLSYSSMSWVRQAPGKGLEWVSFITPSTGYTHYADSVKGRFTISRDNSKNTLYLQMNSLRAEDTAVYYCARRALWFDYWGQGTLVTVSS VL: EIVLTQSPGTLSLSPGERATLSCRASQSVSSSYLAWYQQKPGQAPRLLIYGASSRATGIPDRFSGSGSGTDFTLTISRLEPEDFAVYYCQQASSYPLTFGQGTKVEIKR
endpointResult: 1400 pg/mL

binder: FS22-172-003-AA/FS28-024-051 (bispecific antibody, human IgG1, kappa, L234A L235A, V domains shown, IgG1 mAb^2 with LALA) VH: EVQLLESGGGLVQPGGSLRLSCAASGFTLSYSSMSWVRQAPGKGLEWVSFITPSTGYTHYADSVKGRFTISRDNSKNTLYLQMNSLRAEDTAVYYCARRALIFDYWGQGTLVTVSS VL: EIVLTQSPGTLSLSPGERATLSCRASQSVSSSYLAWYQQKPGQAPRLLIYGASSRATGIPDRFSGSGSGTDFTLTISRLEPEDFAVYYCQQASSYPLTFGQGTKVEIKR
endpointResult: 1130 pg/mL
